assay: Displacement of biotinylated CLIP peptide from H-2Aq expressed in M12Q 14-7 cells at 83 uM; assay type: cell-based
Lab note: anything with inhibition at or over 50% counts as T; the rest go in F.

INSERT INTO measurements (substance, class_assignment) VALUES
  ('Ac-IAVFKMVRK-NH2', 'T'),
  ('Ac-IVSFKAYRK-NH2', 'T'),
  ('Ac-ITTFKSSSK-NH2', 'F'),
  ('Ac-ISTFKARVK-NH2', 'T'),
  ('Ac-IATFKTYYK-NH2', 'T'),
  ('Ac-IMMFKTDVK-NH2', 'F'),
  ('Ac-IMMFKMSDK-NH2', 'F'),
  ('Ac-ITSFKMRYK-NH2', 'T'),
  ('Ac-IMSFKTRDK-NH2', 'F'),
  ('Ac-IMMFKVRRK-NH2', 'T'),
  ('Ac-IVAFKTVVK-NH2', 'F'),
  ('Ac-ISAFKTNRK-NH2', 'T'),
  ('Ac-IAAFKADSK-NH2', 'F'),
  ('Ac-IMTFKAVYK-NH2', 'T'),
  ('Ac-IMTFKMYVK-NH2', 'F'),
  ('Ac-IAMFKSVNK-NH2', 'F'),
  ('Ac-IAMFKMRSK-NH2', 'T'),
  ('Ac-ITMFKMDRK-NH2', 'F');
